# assay.summary: Pharmacokinetics in dogs (plasma concentration by HPLC)
# Assay type: in vivo, dog (beagle)
# run.conditions: dog, plasma, po, 2 mg/kg/day, Mean of 4 dogs, day 5, 4 h; 2 mg/kg/day PO
concentration at 4 h: recorded values
measured.metric: concentration at 4 h (ng/mL)

                                   compound  comparator  quantitative_result
0  Cc1cc(Nc2nccc(-c3ccncc3)n2)ccc1N.Cl.Cl [Compound 2, reference compound]           <                   30
1  c1cc(Nc2nccc(-c3cccs3)n2)cc(OCCn2ccnc2)c1           =                   82

====

# assay.summary: Pharmacokinetics in dogs (plasma concentration by HPLC)
# Assay type: in vivo, dog (beagle)
# run.conditions: dog, plasma, po, 2 mg/kg/day; derived from mean of half-life values; read-out: elimination constant (converted)
Here, each record is paired with measured k el data.
measured.metric: k el (s⁻¹)

>>> print(df.to_string())
                                   molecule  quantitative_result
0  c1cc(Nc2nccc(-c3cccs3)n2)cc(OCCn2ccnc2)c1             0.000107
1  Cc1cc(Nc2nccc(-c3ccncc3)n2)ccc1N.Cl.Cl [Compound 2, reference compound]             0.000248
2  CCN(CC)CCOc1ccc(Nc2nccc(-c3ccncc3)n2)cc1.Cl.Cl [Compound 3, reference compound]             0.000155

====

# assay.summary: Pharmacokinetics in dogs (plasma concentration by HPLC)
# Assay type: in vivo, dog (beagle)
# run.conditions: dog, plasma, po, 2 mg/kg/day, Dog 1, day 3, 12 h; 2 mg/kg/day PO
measured.metric: concentration at 12 h

                                   molecule      result
0  c1cc(Nc2nccc(-c3cccs3)n2)cc(OCCn2ccnc2)c1  < 30 ng/mL

====

# assay.summary: Pharmacokinetics in dogs (plasma concentration by HPLC)
# Assay type: in vivo, dog (beagle)
# run.conditions: dog, plasma, po, 2 mg/kg/day, Dog 4, day 5, 0.5 h; 2 mg/kg/day PO
Listed next: entries and their corresponding concentration at 0.5 h.
measured.metric: concentration at 0.5 h (ng/mL)

>>> print(df.to_string())
                                   compound         measured_metric  unit_of_measure  comparator  quantitative_result
0  c1cc(Nc2nccc(-c3cccs3)n2)cc(OCCn2ccnc2)c1  concentration at 0.5 h            ng/mL           <                   30
1  Cc1cc(Nc2nccc(-c3ccncc3)n2)ccc1N.Cl.Cl [Compound 2, reference compound]  concentration at 0.5 h            ng/mL           =                  420

====

# assay.summary: Pharmacokinetics in dogs (plasma concentration by HPLC)
# Format: in vivo, dog (beagle)
# run.conditions: dog, plasma, po, 2 mg/kg/day, Dog 2, day 1; 2 mg/kg/day PO
measured.metric: Cmax (ng/mL)

>>> print(df.to_string())
                                   compound  quantitative_result
0  Cc1cc(Nc2nccc(-c3ccncc3)n2)ccc1N.Cl.Cl [Compound 2, reference compound]                  438
1  c1cc(Nc2nccc(-c3cccs3)n2)cc(OCCn2ccnc2)c1                  334
